Data provenance is ChEMBL document CHEMBL1614629.

test_summary: Clearance in human after iv administration
Type: ADME, organism-based
test_context: in vivo
measure_name: clearance (mL/min/kg)
State the answer as a number, implicitly in mL/min/kg.

# compound, measured_result
rows = [
    ("CO[C@@]1(NC(=O)CSCC#N)C(=O)N2C(C(=O)O)=C(CSc3nnnn3C)CS[C@@H]21", 1.8),
    ("COc1cccc2c1C(=O)c1c(O)c3c(c(O)c1C2=O)C[C@@](O)(C(=O)CO)C[C@@H]3O[C@H]1C[C@H](N)[C@H](O)[C@H](C)O1", 17),
    ("O=[N+]([O-])O[C@H]1CO[C@H]2[C@@H]1OC[C@H]2O[N+](=O)[O-] [ISOSORBIDE DINITRATE]", 3.6),
    ("O=[N+]([O-])O[C@@H]1CO[C@H]2[C@@H]1OC[C@@H]2O [ISOSORBIDE MONONITRATE]", 1.7),
    ("CC(=N)N1CC[C@H](SC2=C(C(=O)O)N3C(=O)[C@H]([C@@H](C)O)[C@H]3C2)C1", 3.1),
]

In one line, give reported clearance of the entry "Cc1cn([C@H]2C[C@H](N=[N+]=[N-])[C@@H](CO)O2)c(=O)[nH]c1=O" .
24

Look up and report measured clearance for this entry: "CC[C@H]1OC(=O)[C@H](C)[C@@H](O[C@H]2C[C@@](C)(OC)[C@@H](O)[C@H](C)O2)[C@H](C)[C@@H](O[C@@H]2O[C@H](C)C[C@H](N(C)C)[C@H]2O)[C@](C)(O)C[C@@H](C)C(=O)[C@H](C)[C@@H](O)[C@]1(C)O"
7

Assign clearance to the following record: "C#CCCCC(=O)c1cc(C(C)(C)C)c(O)c(C(C)(C)C)c1"
9.9

Answer with the recorded clearance for the compound listed here: O=P1(N(CCCl)CCCl)NCCCO1 (stereo not given) [CYCLOPHOSPHAMIDE ANHYDROUS]
2.6

Please give the documented clearance of "NC1(C(=O)O)CC1"
1.5

Specify reported clearance for the compound shown: "CO/N=C(\C(=O)N[C@@H]1C(=O)N2C(C(=O)[O-])=C(C[n+]3ccn4ncccc43)CS[C@H]12)c1nsc(N)n1"
1.5

Return clearance (reported value) for this compound: C[C@@H](O)[C@H]1C(=O)N2C(C(=O)[O-])=C(SC3Cn4cnc[n+]4C3)[C@H](C)[C@H]12 (stereo not given in full)
2.7

Identify clearance associated with the compound "NCC1(CC(=O)O)CCCCC1"
1.8

Name the recorded clearance of the compound listed here: CN(Cc1cnc2nc(N)nc(N)c2n1)c1ccc(C(=O)N[C@@H](CCC(=O)O)C(=O)O)cc1 [METHOTREXATE]
2.5

Return the recorded clearance value; entry: CC1=NC(=O)C(CCN(C(C)C)C(C)C)(c2ccccc2)C2CCCCN12 (stereo not given) [ACTISOMIDE]
6.8

---

test_summary: Clearance in rat after iv administration
Assay type: ADME, organism-based
test_context: in vivo
Reported clearance values are given for each entry in this list.
I only need the number, in mL/min/kg, no unit after it.

Please review the entries below; each comes with its answer.
# molecule, measure_name, units_label, measured_result
records = [
    ("O=c1[nH]cnc2c1ncn2[C@H]1CC[C@@H](CO)O1", "clearance", "mL/min/kg", 66),
    ("Cc1cccc(C)c1NC(=O)NCCCNC(C)C", "clearance", "mL/min/kg", 82),
    ("COc1cccc2c1C(=O)c1c(O)c3c(c(O)c1C2=O)C[C@@](O)(C(=O)CO)C[C@@H]3O[C@H]1C[C@H](N)[C@H](O)[C@H](C)O1", "clearance", "mL/min/kg", 34),
]

Consider the molecule CC1(C)O[C@@H]2C[C@H]3[C@@H]4C[C@H](F)C5=CC(=O)C=C[C@]5(C)[C@H]4[C@@H](O)C[C@]3(C)[C@]2(C(=O)CO)O1 [FLUNISOLIDE] . State its measured clearance.
8.8

Provide clearance value for the following molecule: CN(Cc1cnc2nc(N)nc(N)c2n1)c1ccc(C(=O)N[C@@H](CCC(=O)O)C(=O)O)cc1 [METHOTREXATE]
12

Provide one value: measured clearance of "CO/N=C(\C(=O)N[C@@H]1C(=O)N2C(C(=O)[O-])=C(C[N+]34CCC(C(N)=O)(CC3)CC4)CS[C@H]12)c1nsc(N)n1"
8.8

Read off the recorded clearance for "Nc1nc(/C(=N/O)C(=O)N[C@@H]2C(=O)N3C(C(=O)O)=C(/C=C4\CCN(CC(F)(F)F)C4=O)CS[C@H]23)cs1"
0.95

---

test_summary: Volume of distribution at steady state in human after iv administration
Format: ADME, organism-based
test_context: in vivo, read-out: Vdss
measure_name: Vd
Please answer using the number first and the unit second.

Some molecules with known Vd results, for comparison:
# molecule, measured_result
rows = [
    ("C#C[C@]1(O)CC[C@H]2[C@@H]3CCc4cc(O)ccc4[C@H]3[C@@H](OC)C[C@@]21C [MOXESTROL]", "0.24 L/kg"),
    ("O=C(O)Cc1ccccc1Nc1c(Cl)cccc1Cl [DICLOFENAC]", "0.17 L/kg"),
    ("CC1=NC(=O)C(CCN(C(C)C)C(C)C)(c2ccccc2)C2CCCCN12 (stereo not given) [ACTISOMIDE]", "0.58 L/kg"),
    ("O=[N+]([O-])O[C@@H]1CO[C@H]2[C@@H]1OC[C@@H]2O [ISOSORBIDE MONONITRATE]", "0.6 L/kg"),
]

Okay, now this molecule:
Provide Vd value for the following molecule: CO/N=C(\C(=O)N[C@@H]1C(=O)N2C(C(=O)O)=CCS[C@H]12)c1csc(N)n1 [CEFTIZOXIME]
0.23 L/kg

---

test_summary: Volume of distribution at steady state in rat after iv administration
Format: ADME, organism-based
test_context: in vivo
measure_name: Vdss (L/kg)
A number alone suffices; assume L/kg.

Use the examples below as a reference point.
# compound, measured_result
records = [
    ("O=P(O)(O)C(Sc1ccc(Cl)cc1)P(=O)(O)O [TILUDRONIC ACID]", 15),
    ("C[C@@H](O)[C@H]1C(=O)N2C(C(=O)[O-])=C(SC3Cn4cnc[n+]4C3)[C@H](C)[C@H]12 (stereo partly drawn) [BIAPENEM]", 0.24),
]

For the compound Cc1cccnc1NS(=O)(=O)c1ccc(C#Cc2ccc(O)c(C(=O)O)c2)cc1 [SUSALIMOD] , give its measured Vdss value.
1.2

Hello, please tell me recorded Vdss for this one: C#CCCCC(=O)c1cc(C(C)(C)C)c(O)c(C(C)(C)C)c1 [TEBUFELONE]
10

Name the recorded Vdss of the compound listed here: CC(C)N(CCC(C(N)=O)(c1ccccc1)c1ccccn1)C(C)C (stereo not drawn) [DISOPYRAMIDE]
6.2

Name the recorded Vdss of the compound listed here: CO/N=C(\C(=O)N[C@@H]1C(=O)N2C(C(=O)[O-])=C(C[n+]3ccn4ncccc43)CS[C@H]12)c1nsc(N)n1 [CEFOZOPRAN]
0.2

Query Vdss for O=C1CN=C(c2ccccc2Cl)c2cc([N+](=O)[O-])ccc2N1 [CLONAZEPAM]
3

Consider the compound O=C(OC1C[C@@H]2CC3C[C@@H](C1)N2CC3O)c1c[nH]c2ccccc12 (stereo partly drawn) and give its recorded Vdss.
15

Supply measured Vdss of CN1C(=O)OC(C)(C)C1=O [TRIMETHADIONE] in your reply.
0.66

Give reported Vdss value for CO[C@@]1(NC(=O)C2SC(=C(C(N)=O)C(=O)O)S2)C(=O)N2C(C(=O)O)=C(CSc3nnnn3C)CS[C@@H]21 (stereo partly drawn) [CEFOTETAN]
0.25

Indicate the recorded Vdss value for this compound: O=C(O)Cc1ccccc1Nc1c(Cl)cccc1Cl [DICLOFENAC]
0.75

Return reported Vdss. Input compound: NC1(C(=O)O)CC1 [1-Aminocyclopropane carboxylic acid]
0.64

Indicate its recorded Vdss; the compound in question is NCC1(CC(=O)O)CCCCC1 [GABAPENTIN]
1.2

Supply measured Vdss of O=c1ccc2ccccc2o1 [COUMARIN] in your reply.
1.3

Consider the compound CO/N=C(\C(=O)N[C@@H]1C(=O)N2C(C(=O)O)=C(CSc3nc(C)c(CC(=O)O)s3)CS[C@H]12)c1csc(N)n1 [CEFODIZIME] and give its recorded Vdss.
0.18

State its Vdss for this compound: "C[C@@H](O)[C@H]1C(=O)N2C(C(=O)O)=C(COC(N)=O)S[C@H]12"
0.05

For the compound CC(=O)CC(c1ccccc1)c1c(O)c2ccccc2oc1=O (stereo not drawn) [WARFARIN] , give its reported Vdss.
0.22

Identify Vdss associated with the compound CO[C@@]1(NC(=O)CSC(F)F)C(=O)N2C(C(=O)O)=C(CSc3nnnn3CCO)CO[C@@H]21 [FLOMOXEF]
0.23
